test system: eIF2α in HEK293-EGFP-eIF2α cells; test: PERK Cellular Assay (HEK293-EGFP-eIF2α cells, tunicamycin-induced ER stress, TR-FRET); assay type: cell-based; details: tunicamycin 2 hours
pIC50: −log10 of the molar value.
ASSAY_ENDPOINT: pIC50

INSERT INTO measurements (compound, result) VALUES
  ('Cc1cc(NC(=O)C(O)c2cccc(F)c2)c(F)cc1-c1nc(C)n2c(C)cnc(N)c12 (stereo not shown) [Example 64]', '6.00 to 6.30'),
  ('[2H]C([2H])([2H])c1nc(-c2ccc(NC(=O)C(O)c3cccc(F)c3)cc2C)c2c(N)ncc(C)n12 (stereo not shown)', '7.60 to 9.00'),
  ('[2H]C([2H])([2H])c1nc(-c2ccc(NC(=O)C(O)c3cccc(Cl)c3)cc2C)c2c(N)ncc(Cl)n12 (stereo not shown) [Example 42]', '7.60 to 9.00'),
  ('[2H]C([2H])([2H])c1nc(-c2cnc(NC(=O)C(O)c3cccc(F)c3)cc2C)c2c(N)nc(C)cn12 (stereo not shown) [Example 179]', '6.30 to 6.60');
